These measurements were taken from patent US12252531B2.

Tested on: LTBP1-proTGFβ1, LTBP3-proTGFβ1, GARP-proTGFβ1 and LRRC33-proTGFβ1 complexes
Assay: BLI (OCTET), binding profile and bias across the four complexes
Parameters: species or system human
Settings: ratio of average KD cell-associated / matrix-associated
reported_metric: (H) G/D (fold bias) (fold)
Numbers only, in fold.

Some entries whose results are on file:
Ab25: proTGFβ1 antibody; VH SEQ ID NO: 133, VL SEQ ID NO: 15 (antibody, V domains shown) VH: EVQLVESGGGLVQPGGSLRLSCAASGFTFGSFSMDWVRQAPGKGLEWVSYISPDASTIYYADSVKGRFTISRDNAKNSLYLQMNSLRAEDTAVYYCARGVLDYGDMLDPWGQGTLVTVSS VL: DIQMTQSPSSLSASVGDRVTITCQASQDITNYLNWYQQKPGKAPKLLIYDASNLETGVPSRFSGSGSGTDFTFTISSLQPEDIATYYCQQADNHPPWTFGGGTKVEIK : 2.431
Ab24: proTGFβ1 antibody; VH SEQ ID NO: 132, VL SEQ ID NO: 15 (antibody, V domains shown) VH: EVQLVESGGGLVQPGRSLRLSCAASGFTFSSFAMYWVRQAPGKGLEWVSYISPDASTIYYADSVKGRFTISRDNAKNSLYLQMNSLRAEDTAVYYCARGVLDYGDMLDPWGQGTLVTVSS VL: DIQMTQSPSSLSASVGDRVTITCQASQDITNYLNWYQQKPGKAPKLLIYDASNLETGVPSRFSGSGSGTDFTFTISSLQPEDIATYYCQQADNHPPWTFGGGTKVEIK : 2.421

# batch: return (H) G/D (fold bias) for each of the 5 molecules below
1. Ab23: proTGFβ1 antibody; VH SEQ ID NO: 131, VL SEQ ID NO: 15 (antibody, V domains shown) VH: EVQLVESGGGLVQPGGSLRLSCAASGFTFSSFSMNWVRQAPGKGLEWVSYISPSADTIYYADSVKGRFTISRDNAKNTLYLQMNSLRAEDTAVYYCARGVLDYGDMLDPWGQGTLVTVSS VL: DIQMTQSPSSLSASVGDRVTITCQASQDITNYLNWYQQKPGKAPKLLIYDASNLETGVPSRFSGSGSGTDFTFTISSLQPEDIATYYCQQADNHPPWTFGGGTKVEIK
2. Ab27: proTGFβ1 antibody; VH SEQ ID NO: 135, VL SEQ ID NO: 15 (antibody, V domains shown) VH: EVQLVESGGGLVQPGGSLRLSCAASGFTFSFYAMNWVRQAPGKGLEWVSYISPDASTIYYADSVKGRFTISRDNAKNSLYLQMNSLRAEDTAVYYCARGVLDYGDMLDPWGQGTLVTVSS VL: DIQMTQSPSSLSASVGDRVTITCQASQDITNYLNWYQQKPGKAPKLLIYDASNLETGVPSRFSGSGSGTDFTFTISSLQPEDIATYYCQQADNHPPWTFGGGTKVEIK
3. Ab31: proTGFβ1 antibody; VH SEQ ID NO: 139, VL SEQ ID NO: 15 (antibody, V domains shown) VH: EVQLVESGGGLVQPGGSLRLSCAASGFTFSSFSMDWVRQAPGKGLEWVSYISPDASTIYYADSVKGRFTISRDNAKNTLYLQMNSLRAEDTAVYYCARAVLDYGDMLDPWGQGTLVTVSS VL: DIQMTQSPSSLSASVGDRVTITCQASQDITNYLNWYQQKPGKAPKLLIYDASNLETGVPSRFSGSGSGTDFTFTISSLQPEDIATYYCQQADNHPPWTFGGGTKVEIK
4. Ab32: proTGFβ1 antibody; VH SEQ ID NO: 140, VL SEQ ID NO: 15 (antibody, V domains shown) VH: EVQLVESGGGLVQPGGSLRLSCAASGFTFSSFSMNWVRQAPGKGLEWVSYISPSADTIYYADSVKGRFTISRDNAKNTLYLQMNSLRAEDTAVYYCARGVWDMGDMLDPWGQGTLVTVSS VL: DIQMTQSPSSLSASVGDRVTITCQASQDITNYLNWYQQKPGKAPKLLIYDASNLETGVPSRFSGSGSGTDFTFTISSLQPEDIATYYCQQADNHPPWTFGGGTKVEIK
5. Ab30: proTGFβ1 antibody; VH SEQ ID NO: 138, VL SEQ ID NO: 15 (antibody, V domains shown) VH: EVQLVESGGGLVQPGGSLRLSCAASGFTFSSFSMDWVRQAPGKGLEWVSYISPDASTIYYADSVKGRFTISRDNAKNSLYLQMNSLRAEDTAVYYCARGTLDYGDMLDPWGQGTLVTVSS VL: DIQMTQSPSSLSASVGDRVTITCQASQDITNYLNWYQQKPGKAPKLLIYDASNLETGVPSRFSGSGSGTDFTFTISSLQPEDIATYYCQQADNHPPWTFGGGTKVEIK

1: 2.028; 2: 1.738; 3: 2.376; 4: 2.467; 5: 2.307

# batch: return (H) G/D (fold bias) for each of the 2 molecules below
1. Ab22: proTGFβ1 antibody; VH SEQ ID NO: 130, VL SEQ ID NO: 15 (antibody, V domains shown) VH: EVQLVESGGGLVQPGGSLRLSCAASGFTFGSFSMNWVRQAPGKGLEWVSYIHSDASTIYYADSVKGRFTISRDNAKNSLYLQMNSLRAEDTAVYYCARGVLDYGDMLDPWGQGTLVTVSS VL: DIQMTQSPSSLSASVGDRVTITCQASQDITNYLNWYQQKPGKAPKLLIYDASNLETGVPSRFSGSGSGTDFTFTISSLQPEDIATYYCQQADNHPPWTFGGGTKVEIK
2. Ab29: proTGFβ1 antibody; VH SEQ ID NO: 137, VL SEQ ID NO: 15 (antibody, V domains shown) VH: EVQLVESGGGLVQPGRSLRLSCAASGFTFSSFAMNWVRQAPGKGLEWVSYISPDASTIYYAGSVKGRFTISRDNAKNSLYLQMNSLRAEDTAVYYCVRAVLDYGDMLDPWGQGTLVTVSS VL: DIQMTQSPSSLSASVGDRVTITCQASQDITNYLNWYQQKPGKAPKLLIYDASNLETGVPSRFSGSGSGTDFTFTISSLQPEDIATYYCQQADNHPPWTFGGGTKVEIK

2.147
1.965
